# TESTED SYSTEM: AMP-activated protein kinase, AMPK (Homo sapiens) (UniProt P54646+O43741+P54619+Q9UGJ0+Q9Y478+Q13131+Q9UGI9)
# METHOD SUMMARY: AMP-dependent Kinase enzyme assay. An in vitro enzyme assay that detects ADP turnover that is directly proportional to AMPK activity. This uses naive AMPK that is activated during the assay with MK-8722
# Assay type: functional
# Parameters: scale not given: direction of the effect not stated beside the values
# CONDITIONS USED: 30 µM
Please provide measured Percent Effect for the entries that follow.
Answer in %, number only, no unit symbol.

State, in one line, measured Percent Effect of CCc1nc(CN(CC(N)=O)C(C)C)cs1
0.603

State, in one line, measured Percent Effect of O=C(NCc1ccco1)[C@H]1C[C@@H]2CCN(c3ccncn3)C[C@@H]2O1
1.73

State, in one line, measured Percent Effect of CCSc1ccc(C(=O)Nc2c(C)nn(C(C)C)c2C)cn1
1.71

State, in one line, measured Percent Effect of Cc1cccc(-c2ccc3nc(C4CCN(CC5CC5)CC4)nn3c2)c1
-2.67

State, in one line, measured Percent Effect of CN(C)C(=O)N1CCn2nc(CNC(=O)CCC(F)(F)F)cc2C1
-0.273

State, in one line, measured Percent Effect of Cc1ccc(CNC2CCN(CCc3ccncc3)CC2)cc1C
-4.58

State, in one line, measured Percent Effect of CCc1nc(CCNC(=O)NC2CC2)sc1C
-1.43

State, in one line, measured Percent Effect of CSc1cccc(CNC(=O)C2CC(=O)N(CCN(C)C)C2)c1 (centres undefined)
-10.1

State, in one line, measured Percent Effect of COCCN(C)CCN1CC2(CCN(C3CCCOC3)CC2)OC1=O (centres undefined)
-4.24

State, in one line, measured Percent Effect of CC(CCc1ccco1)NC(=O)Nc1cc(C(F)(F)F)c[nH]c1=O (centres undefined)
40.7

State, in one line, measured Percent Effect of O=C(c1cnc(-c2ccco2)s1)N1CCCC1Cn1cccn1 (centres undefined)
8.45

State, in one line, measured Percent Effect of O=C(CN1CC(n2cccn2)C1)NCCCc1ccccc1
10.2

State, in one line, measured Percent Effect of Cn1cccc1C(CNC(=O)c1ccc(F)cc1F)N1CCCCCC1 (centres undefined)
-9.64

State, in one line, measured Percent Effect of COCCN1C[C@@H](C)[C@@]2(COCCN(C(=O)c3cnc(C)cn3)C2)C1
6.23

State, in one line, measured Percent Effect of Cc1ncsc1C(=O)NCc1cccs1
-1.61

State, in one line, measured Percent Effect of COc1cc(CNCc2c(C)nn(C)c2N(C)C)ccn1
-15.9

State, in one line, measured Percent Effect of Cc1ncsc1C(=O)NC1CCN(Cc2ccc(C#N)cc2)CC1
0.609

State, in one line, measured Percent Effect of COc1ccc(COCC(O)CNC(=O)c2cc(C)cc(C)c2)cc1 (centres undefined)
0.387

State, in one line, measured Percent Effect of CC(C)c1nnc2n1CCN(CC(=O)N1CCc3ccccc3C1)C2
-2.4

State, in one line, measured Percent Effect of Cc1cnc(C)c(N2CCN(Cc3ccc(-c4cc[nH]n4)o3)CC2)n1
-20.1

State, in one line, measured Percent Effect of O=C(CO)N1C[C@H]2CC[C@@H]1CN(C1Cc3ccccc3C1)C2
-17.8

State, in one line, measured Percent Effect of N#CCCN(C(=O)CN1CCCC1C1CCCCC1)c1ccccc1 (centres undefined)
-4.92

State, in one line, measured Percent Effect of CCO[C@@H]1CCN(C(=O)c2cscn2)[C@@H]1Cc1cnn(C)c1
9.65

State, in one line, measured Percent Effect of Cc1noc([C@@H]2CCCN2C(=O)C2CCN(C(=O)C3CCC3)CC2)n1
27.2
